Target: HIV-1 reverse transcriptase (Human immunodeficiency virus type 1 group M subtype B, UniProt P04585)
Construct: purchased
Test: Screening for the in vitro activity against the HIV-1 reverse transcriptase
Assay type: biochemical
Settings: initial concentration 200 μg/ml; read-out: IC50
Method: Principle of the test: The template to which the HIV-1 reverse transcriptase interacts was covered onto the enzyme-lined template. […] The activity of the enzyme was measured as the amount of the integrating Biotin-dUTP in the reaction by using streptavidin-labeled horseradish peroxidase. […] 4. […] A streptavidin-labeled horseradish peroxidase was added to visual the system, and OD450 was measured.
pIC50: −log10 of the molar value.

| compound | pIC50 |
| --- | --- |
| CC(C)C1CC23OC1(O)C/C(=C\Nc1ccc(O)cc1)C2CCC3C (stereo not shown) [Compound 5, Curcumol p-hydroxy aniline] | < 3.23 |
